// reported inhibition zone (IZ) for each item listed
# System: Staphylococcus aureus
# MEASUREMENT DESCRIPTION: Antibacterial activity against multidrug-resistant Staphylococcus aureus after 20 hrs by cylinder and well method
# Format: functional

| MOLECULE | inhibition zone (IZ) |
| --- | --- |
| O=C(Cn1c2ccccc2c2nc3ccccc3nc21)N1N=C(c2cc3ccccc3o2)CC1c1ccc(Cl)cc1 (stereo not drawn) | 8 mm |
| O=C(Cn1c2ccccc2c2nc3ccccc3nc21)N1N=C(c2cc3ccccc3o2)CC1c1ccccc1[N+](=O)[O-] (stereo not drawn) | 12 mm |
| O=C(Cn1c2ccccc2c2nc3ccccc3nc21)N1N=C(c2cc3ccccc3o2)CC1c1cccc([N+](=O)[O-])c1 (stereo not drawn) | 9 mm |
| O=C(Cn1c2ccccc2c2nc3ccccc3nc21)N1N=C(c2cc3ccccc3o2)CC1c1ccco1 (stereo not drawn) | 10 mm |
| O=C(O)c1ccccc1C1CC(c2cc3ccccc3o2)=NN1C(=O)Cn1c2ccccc2c2nc3ccccc3nc21 (stereo not drawn) | 12 mm |
| O=C(Cn1c2ccccc2c2nc3ccccc3nc21)N1N=C(c2cc3ccccc3o2)CC1c1ccccc1Cl (stereo not drawn) | 11 mm |
| O=C(Cn1c2ccccc2c2nc3ccccc3nc21)N1N=C(c2cc3ccccc3o2)CC1c1ccc(O)cc1 (stereo not drawn) | 14 mm |
| C[C@@H]1CN(c2c(F)c(N)c3c(=O)c(C(=O)O)cn(C4CC4)c3c2F)C[C@H](C)N1 | 36 mm |

====

# Test system: Pseudomonas aeruginosa
# MEASUREMENT DESCRIPTION: Antibacterial activity against multidrug-resistant Pseudomonas aeruginosa after 24 hrs by broth microdilution method
# Format: functional
Label key: true (1) means MIC under 10 µg/mL; false (0) means MIC of 10 µg/mL or more.

| COMPOUND | CATEGORY LABEL |
| --- | --- |
| O=C(Cn1c2ccccc2c2nc3ccccc3nc21)N1N=C(c2cc3ccccc3o2)CC1c1ccco1 (stereo not drawn) | false (0) |
| O=C(Cn1c2ccccc2c2nc3ccccc3nc21)N1N=C(c2cc3ccccc3o2)CC1c1ccccc1 (stereo not drawn) | false (0) |
| O=C(Cn1c2ccccc2c2nc3ccccc3nc21)N1N=C(c2cc3ccccc3o2)CC1c1ccccc1O (stereo not drawn) | true (1) |
| O=C(O)c1ccccc1C1CC(c2cc3ccccc3o2)=NN1C(=O)Cn1c2ccccc2c2nc3ccccc3nc21 (stereo not drawn) | true (1) |
| O=C(Cn1c2ccccc2c2nc3ccccc3nc21)N1N=C(c2cc3ccccc3o2)CC1c1ccccc1[N+](=O)[O-] (stereo not drawn) | false (0) |
| COc1ccccc1C1CC(c2cc3ccccc3o2)=NN1C(=O)Cn1c2ccccc2c2nc3ccccc3nc21 (stereo not drawn) | false (0) |
| O=C(Cn1c2ccccc2c2nc3ccccc3nc21)N1N=C(c2cc3ccccc3o2)CC1c1ccccc1Cl (stereo not drawn) | false (0) |
| C[C@@H]1CN(c2c(F)c(N)c3c(=O)c(C(=O)O)cn(C4CC4)c3c2F)C[C@H](C)N1 | true (1) |

====

# System: Streptococcus pyogenes
# MEASUREMENT DESCRIPTION: Antibacterial activity against multidrug-resistant Streptococcus pyogenes after 20 hrs by cylinder and well method
# Format: functional
Each entry below lists one item and its recorded inhibition zone (IZ) value.

| COMPOUND | MEASUREMENT UNITS | inhibition zone (IZ) |
| --- | --- | --- |
| COc1ccccc1C1CC(c2cc3ccccc3o2)=NN1C(=O)Cn1c2ccccc2c2nc3ccccc3nc21 (centres undefined) | mm | 15 |
| O=C(Cn1c2ccccc2c2nc3ccccc3nc21)N1N=C(c2cc3ccccc3o2)CC1/C=C/c1ccccc1 (centres undefined) | mm | 10 |
| O=C(Cn1c2ccccc2c2nc3ccccc3nc21)N1N=C(c2cc3ccccc3o2)CC1c1ccccc1Cl (centres undefined) | mm | 12 |
| C[C@@H]1CN(c2c(F)c(N)c3c(=O)c(C(=O)O)cn(C4CC4)c3c2F)C[C@H](C)N1 | mm | 38 |

# credit: ChEMBL document CHEMBL1153606
